Could you please report measured half-life for the items listed next?
target: bovine pancreatic trypsin (Bos taurus, UniProt P00760); assay: Metabolic stability in trypsin; assay type: in vitro ADME; settings: bovine pancreatic trypsin 2.5 μg/mL, pH 8-8.5, 37°C, peptide 100 μM; read-out: Stability (t1/2) Trypsin
Sequence (P00760 24-246): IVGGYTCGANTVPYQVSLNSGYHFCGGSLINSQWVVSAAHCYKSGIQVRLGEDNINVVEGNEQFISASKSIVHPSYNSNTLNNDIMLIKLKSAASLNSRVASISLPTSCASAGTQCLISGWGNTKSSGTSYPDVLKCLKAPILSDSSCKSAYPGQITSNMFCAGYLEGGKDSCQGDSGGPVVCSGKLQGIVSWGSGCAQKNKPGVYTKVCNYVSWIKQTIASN
Where a SMILES comes first, the peptide text is derived from it. [ ]: non-standard residue; d: D form. Phe(4-NO2) = N[C@@H](Cc1ccc([N+](=O)[O-])cc1)C(=O)O; Phe(4-Cl) = N[C@@H](Cc1ccc(Cl)cc1)C(=O)O; Phe(4-F) = N[C@@H](Cc1ccc(F)cc1)C(=O)O; NMeR = CN[C@@H](CCCNC(=N)N)C(=O)O; Aoc = NCCCCCCCC(=O)O; Sar = CNCC(=O)O
Answers are plain numbers, in min.

- CC(C)C[C@H](NC(=O)[C@H](Cc1ccc(Cl)cc1)NC(=O)CN(C)C(=O)[C@@H](N)Cc1ccc(O)cc1)C(=O)N[C@@H](CCCCN)C(=O)N[C@H](CCCNC(=N)N)C(N)=O [KA306] (H-Y[Sar][Phe(4-Cl)]LK[dR]-NH2): 69.9

State recorded half-life for all listed compounds.
1. CC(C)C[C@H](NC(=O)[C@H](Cc1ccc([N+](=O)[O-])cc1)NC(=O)CNC(=O)CN(C)C(=O)[C@@H](N)Cc1ccc(O)cc1)C(=O)N[C@@H](CCCNC(=N)N)C(=O)N[C@H](CCCNC(=N)N)C(N)=O
2. CC(C)C[C@H](NC(=O)[C@H](Cc1ccc(Cl)cc1)NC(=O)CN(C)C(=O)[C@@H](N)Cc1ccc(O)cc1)C(=O)N[C@@H](CCCNC(=N)N)C(=O)N[C@H](CCCNC(=N)N)C(N)=O [KA206] (H-Y[Sar][Phe(4-Cl)]LR[dR]-NH2)
3. CC(C)C[C@H](NC(=O)[C@H](Cc1ccc(Cl)cc1)NC(=O)CN(C)C(=O)[C@@H](N)Cc1ccc(O)cc1)C(=O)N[C@@H](CCCNC(=N)N)C(=O)N[C@H](CCCNC(=N)N)C(=O)NCCCCCCCC(N)=O [KA305] (H-Y[Sar][Phe(4-Cl)]LR[dR][Aoc]-NH2)
4. CC(C)C[C@H](NC(=O)[C@H](Cc1ccc(F)cc1)NC(=O)CN(C)C(=O)[C@@H](N)Cc1ccc(O)cc1)C(=O)N[C@@H](CCCNC(=N)N)C(=O)N[C@H](CCCNC(=N)N)C(N)=O [KA207] (H-Y[Sar][Phe(4-F)]LR[dR]-NH2)
5. CC(C)C[C@H](NC(=O)[C@H](Cc1ccc([N+](=O)[O-])cc1)NC(=O)CN(C)C(=O)[C@@H](N)Cc1ccc(O)cc1)C(=O)N[C@@H](CCCNC(=N)N)C(=O)N[C@H](CCCNC(=N)N)C(N)=O [KA204] (H-Y[Sar][Phe(4-NO2)]LR[dR]-NH2)
6. CC(C)C[C@H](NC(=O)[C@H](Cc1ccc([N+](=O)[O-])cc1)NC(=O)CNC(=O)CNC(=O)[C@@H](N)Cc1ccc(O)cc1)C(=O)N[C@@H](CCCNC(=N)N)C(=O)N[C@H](CCCNC(=N)N)C(N)=O

RESULT:
1. 8.5
2. 15.9
3. 4.9
4. 7.6
5. 15.4
6. 6.4

Items follow; give half-life for each.
1. CC(C)C[C@H](NC(=O)[C@H](Cc1ccccc1)NC(=O)CN(C)C(=O)[C@@H](N)Cc1ccc(O)cc1)C(=O)N[C@@H](CCCNC(=N)N)C(=O)N[C@H](CCCNC(=N)N)C(N)=O [KA203] (H-Y[Sar]FLR[dR]-NH2)
2. CC(C)C[C@H](NC(=O)[C@H](Cc1ccc([N+](=O)[O-])cc1)NC(=O)CN(C)C(=O)[C@@H](N)Cc1ccc(O)cc1)C(=O)N[C@H](CCCNC(=N)N)C(=O)N[C@@H](CCCNC(=N)N)C(N)=O [KA205] (H-Y[Sar][Phe(4-NO2)]L[dR]R-NH2)

RESULT:
1. 13.6
2. 3260

QUERY: Recorded half-life for CC(C)C[C@H](NC(=O)[C@H](Cc1ccc(Cl)cc1)NC(=O)CN(C)C(=O)[C@@H](N)Cc1ccc(O)cc1)C(=O)N[C@@H](CCCNC(=N)N)C(=O)N(C)[C@@H](CCCNC(=N)N)C(=O)NCCCCCCCC(N)=O [KA312] (H-Y[Sar][Phe(4-Cl)]LR[NMeR][Aoc]-NH2) , please?
RESULT: 445
